Potency: recorded values
# target.or.test.system: Aldehyde dehydrogenase 1A1 (Homo sapiens)
# assay.comment: Extended Characterization of HPGD Inhibitors: Counterscreen Against ALDH1A1
# test.conditions: recombinant ALDH1A1, NADH fluorescence, propionaldehyde/NAD+
This is one part of the list. Inconclusive results are not listed. Active and inactive are the calls of the source. The call rests on the fitted dose curve; in most records, active means well fitted inhibition curve with a large enough effect; inconclusive means small, poorly fitted or top-dose-only effect; inactive means no such curve, though single readings can be large or run the other way.

Previously resolved entries follow.
>>> recorded_value("FC(F)(F)c1cccc(N2CCN(C(=S)Nc3ccncc3)CC2)c1")
"27.1 µM (active)"
>>> recorded_value("Cc1ccc(N2CCN(C(=S)Nc3cc(C)ccn3)CC2)cc1")
"3.83 µM (active)"
>>> recorded_value("COc1cccc(NC(=S)N2CCN(c3ccccc3C(F)(F)F)CC2)n1")
"2.15 µM (active)"
>>> recorded_value("Cc1cc(C)nc(NC(=S)N2CCN(c3cccc(C(F)(F)F)c3)CC2)c1")
"15.2 µM (active)"

Now take the following compound into account.
Q) I am curious: what Potency value has been reported for Cc1cc(C)nc(NC(=S)N2CCN(c3ccc(Cl)cc3F)CC2)c1 ?
A) 4.82 µM (active)
